Assign % Phosphatase Activity (compared to DMSO) PRL-3 to each entry below.
target: recombinant PRL-3 (Homo sapiens, UniProt O75365); construct: 6xHis (N, cleaved yes); made in house; host or cells: E. coli One Shot BL21 Star; assay: In vitro phosphatase assay (DiFMUP hydrolysis), PRL-3; assay type: biochemical; conditions: FDA-approved drug screen; compared to DMSO; note: test concentration or dose not given here
Sequence (O75365 whole entry): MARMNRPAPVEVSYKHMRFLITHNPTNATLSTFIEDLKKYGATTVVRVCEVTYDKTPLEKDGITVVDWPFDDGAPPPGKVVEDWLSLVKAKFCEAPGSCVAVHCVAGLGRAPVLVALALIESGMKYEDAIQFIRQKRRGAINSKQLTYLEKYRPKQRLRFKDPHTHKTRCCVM
Counter-ions that a name gives are not always drawn. Residues, ends and D or L forms follow the SMILES beside them.
Reply with just the number (in %).

# get_value(readout='% Phosphatase Activity (compared to DMSO) PRL-3', item= CCC(=O)O[C@]1(C(=O)CCl)[C@@H](C)C[C@H]2[C@@H]3CCC4=CC(=O)C=C[C@]4(C)[C@@]3(F)[C@@H](O)C[C@@]21C [Clobetasol propionate] ) 78

Same question for COC(=O)[C@H](Cc1ccccc1)NC(=O)[C@@H](N)CC(=O)O [Aspartame] (H-Asp-Phe-OMe) please. 85

Repeat for the following compound: O=C(O)Cc1ccccc1Nc1c(Cl)cccc1Cl [Diclofenac Diethylamine] 97

Next: CC(C)/N=c1\cc2n(-c3ccc(Cl)cc3)c3ccccc3nc-2cc1Nc1ccc(Cl)cc1 [Clofazimine] 69

And for NC(=O)c1cn(Cc2c(F)cccc2F)nn1 [Rufinamide] ? 77

Now try Cc1nc2ccc(CN(C)c3ccc(C(=O)N[C@@H](CCC(=O)O)C(=O)O)s3)cc2c(=O)[nH]1 [Raltitrexed] . 71

Input O=c1[nH]c(=O)n([C@H]2C[C@H](O)[C@@H](CO)O2)cc1I [Idoxuridine] 90

// next record CN1[C@@H]2CC[C@H]1C[C@@H](OC(c1ccccc1)c1ccccc1)C2 [Benztropine mesylate] 89

Also CN1CCN(C2=Nc3cc(Cl)ccc3Nc3ccccc32)CC1 [Clozapine] ? 85

Can you check CC1(C)CCC(c2ccc(Cl)cc2)=C(CN2CCN(c3ccc(C(=O)NS(=O)(=O)c4ccc(N[C@H](CCN5CCOCC5)CSc5ccccc5)c(S(=O)(=O)C(F)(F)F)c4)cc3)CC2)C1 [ABT-263 (Navitoclax)] next? 81

And CCCCc1oc2ccc(NS(C)(=O)=O)cc2c1C(=O)c1ccc(OCCCN(CCCC)CCCC)cc1 [Dronedarone HCl] ? 96

Another compound to look at: CCOC(=O)O[C@]1(C(=O)OCCl)CC[C@H]2[C@@H]3CCC4=CC(=O)C=C[C@]4(C)[C@H]3[C@@H](O)C[C@@]21C [Loteprednol etabonate] 82

And what about the compound CC(=O)NC(CC(C)C)C(=O)O (stereo not shown) [Acetylleucine] ? 89

Another: COc1nc(C)nc(Cl)c1N=C1NCCN1 [Moxonidine] 80

What would you report for Cc1[nH]c(=O)c(C#N)cc1-c1ccncc1 [Milrinone] ? 83

And then O=C(O)c1cc(O)c(O)c(O)c1 [Gallic acid] , what is it? 80

###

biological target: recombinant PRL-1 (Homo sapiens, UniProt Q93096); construct: 6xHis (N, cleaved yes); made in house; host or cells: E. coli One Shot BL21 Star; experiment: In vitro phosphatase assay (DiFMUP hydrolysis), PRL-1; assay type: biochemical; conditions: FDA-approved drug screen; compared to DMSO; note: test concentration or dose not given here
Sequence (Q93096 whole entry): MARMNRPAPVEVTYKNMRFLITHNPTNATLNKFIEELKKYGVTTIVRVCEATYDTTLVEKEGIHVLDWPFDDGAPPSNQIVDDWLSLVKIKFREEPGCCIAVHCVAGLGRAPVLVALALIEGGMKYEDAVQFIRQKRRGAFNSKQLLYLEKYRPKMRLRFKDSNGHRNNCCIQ
Counter-ions that a name gives are not always drawn.
measured-quantity: % Phosphatase Activity (compared to DMSO) PRL-1 (%)
Report as a plain number; the unit % is understood.

Request the reported % Phosphatase Activity (compared to DMSO) PRL-1 associated with CC(=O)/N=c1/sc(S(N)(=O)=O)nn1C [Methazolamide] 110

# repeat for CC(C)NCC(O)COc1ccc(COCCOC(C)C)cc1 (stereo not shown) [Bisoprolol fumarate] 104

And CCCCc1oc2ccc(NS(C)(=O)=O)cc2c1C(=O)c1ccc(OCCCN(CCCC)CCCC)cc1 [Dronedarone HCl] ? 116

Then this compound: CC(C)CN(C[C@@H](O)[C@H](Cc1ccccc1)NC(=O)O[C@H]1CO[C@H]2OCC[C@H]21)S(=O)(=O)c1ccc(N)cc1.CCO [Darunavir Ethanolate] 99

Next: CC(C)(C)c1cc(NC(=O)Nc2ccc(-c3cn4c(n3)sc3cc(OCCN5CCOCC5)ccc34)cc2)no1 [Quizartinib (AC220)] 112

Next: OC1(c2ccc(Cl)c(C(F)(F)F)c2)CCN(CCCC(c2ccc(F)cc2)c2ccc(F)cc2)CC1 [Penfluridol] 100

Let us now turn to OC(c1cc(C(F)(F)F)nc2c(C(F)(F)F)cccc12)C1CCCCN1 (stereo not shown) [Mefloquine HCl] 100

For Oc1ccc(OCc2ccccc2)cc1 [Monobenzone] then? 105

Can you check CC(C)(C)c1cc(C(C)(C)C)c(NC(=O)c2c[nH]c3ccccc3c2=O)cc1O [Ivacaftor (VX-770)] next? 95

Here is the next compound: Nc1nc2c(ncn2CCC(CO)CO)c(=O)[nH]1 [Penciclovir] 98

Another: CCNC1(C(N)=O)CCN(c2ncnc3c2nc(-c2ccccc2Cl)n3-c2ccc(Cl)cc2)CC1.Cl [Otenabant (CP-945598) HCl] 96

Now consider CC(C)NC[C@@H](O)COc1ccc(CC(N)=O)cc1 [(R)-(+)-Atenolol] and answer again. 113

Request: CC(C(=O)O)c1ccc(-c2ccccc2)c(F)c1 (stereo not shown) [Flurbiprofen] 97

What about this compound? FC(F)(F)c1ccc(CNc2ccc(Cc3c[nH]c4ncc(Cl)cc34)cn2)cn1 [Pexidartinib (PLX3397)] 102

Thanks! And CC1CNc2c(cccc2S(=O)(=O)N[C@@H](CCCNC(=N)N)C(=O)N2CC[C@@H](C)C[C@@H]2C(=O)O)C1 (stereo partly shown) [Argatroban] ? 104

Could you do the same for COc1ccc(CN2CCN(C(c3ccc(F)cc3)c3ccc(F)cc3)CC2)c(OC)c1OC.Cl.Cl [Lomerizine HCl] , please? 97

###

molecular target: recombinant PRL-2 (Homo sapiens); construct: 6xHis (N, cleaved yes); made in house; host or cells: E. coli One Shot BL21 Star; experiment: In vitro phosphatase assay (DiFMUP hydrolysis), PRL-2; type: biochemical; settings: FDA-approved drug screen; compared to DMSO;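 note: PRL-2 activity read as DiFMUP hydrolysis after 20 min at room temperature with drug, enzyme first pre-reduced at 4 °C for 20 min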
Sequence (Q12974 whole entry): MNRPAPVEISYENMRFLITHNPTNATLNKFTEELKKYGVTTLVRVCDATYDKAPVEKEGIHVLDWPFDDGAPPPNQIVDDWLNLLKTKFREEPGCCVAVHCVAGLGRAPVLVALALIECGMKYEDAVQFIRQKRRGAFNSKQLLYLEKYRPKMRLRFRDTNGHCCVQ
Counter-ions that a name gives are not always drawn.
measured-quantity: % Phosphatase Activity (compared to DMSO) PRL-2 (%)
A number alone suffices; assume %.

I am curious: what % Phosphatase Activity (compared to DMSO) PRL-2 value has been reported for CN(C)[C@@H]1C(=O)C(C(N)=O)=C(O)[C@@]2(O)C(=O)C3=C(O)c4c(O)cccc4[C@@](C)(O)[C@H]3[C@H](O)[C@@H]12 ? 73

// repeat for CCN(CC)CCOc1ccc(C(=C(Cl)c2ccccc2)c2ccccc2)cc1 [Clomifene citrate] and report 128

Another compound to look at: CCOC(=O)c1ncn2c1CN(C)C(=O)c1cc(F)ccc1-2 102

Would you mind doing CN(C)C/C=C/C(=O)Nc1cc2c(Nc3ccc(F)c(Cl)c3)ncnc2cc1O[C@H]1CCOC1 as well? 106

###

molecular target: recombinant PRL-1 (Homo sapiens); construct: 6xHis (N, cleaved yes); made in house; host or cells: E. coli One Shot BL21 Star; assay: In vitro phosphatase assay (DiFMUP hydrolysis), PRL-1; format: biochemical; conditions: FDA-approved drug screen; activity compared to DMSO
Counter-ions that a name gives are not always drawn.
measured-quantity: % Phosphatase Activity (compared to DMSO) PRL-1 (%)
Provide only the numeric value, understood in %.

Fill in: % Phosphatase Activity (compared to DMSO) PRL-1 of COc1ccc(C(CN(C)C)C2(O)CCCCC2)cc1 (stereo not drawn) is ___ 97

And then C=C1CC[C@H](O)C/C1=C/C=C1\CCC[C@]2(C)[C@@H]([C@H](C)/C=C/[C@H](C)C(C)C)CC[C@@H]12 [Vitamin D2] , what is it? 95

Try the compound CCOC(=O)c1ccc(C#Cc2ccc3c(c2)C(C)(C)CCS3)nc1 1414

Another: Cc1cn([C@H]2C=C[C@@H](CO)O2)c(=O)[nH]c1=O 104

Same question, CC(=O)N[C@H]1[C@H]([C@H](O)[C@H](O)CO)OC(C(=O)O)=C[C@@H]1N=C(N)N this time 90

Input O=C[C@H](O)[C@@H](O)[C@H](O)CO 115

// next record COc1ncnc(NS(=O)(=O)c2ccc(N)cc2)c1OC 110

Same for CCOC(N)=O 99

Here is the next compound: COc1cc(C(=O)NC2CCCNC2)cc(OC)c1OC (stereo not drawn) [Troxipide] 95

Here is the next compound: O=c1n(CCCN2CCN(c3cccc(Cl)c3)CC2)nc2ccccn12 [Trazodone HCl] 146

Entry to check: CC1=C(/C=C/C(C)=C/C=C/C(C)=C/C(=O)O)C(C)(C)CCC1 78

What would you report for N[C@@H]1CN(c2c(F)cc3c(=O)c(C(=O)O)cn([C@@H]4C[C@@H]4F)c3c2Cl)CC12CC2.O [Sitafloxacin Hydrate] ? 91

Again, but for CC1(O)CCC(C(C)(C)O)CC1.O (stereo not drawn) [Terpin (hydrate)] 88

Then what about the compound COc1cc2c(cc1OC)C1CC(=O)C(CC(C)C)CN1CC2 (stereo not drawn) ? 81

Please give the result for Cc1cc(C(C)(C)C)cc(C)c1CC1=NCCN1 [Xylometazoline HCl] too. 98

Then Cc1ccc(C(=O)c2cc(O)c(O)c([N+](=O)[O-])c2)cc1 ? 78

// query: O=C1O[C@H]([C@@H](O)CO)C(O)=C1O 96

Try this compound next: COCC[n+]1c2c(n(Cc3cnccn3)c1C)C(=O)c1ccccc1C2=O.[Br-] [YM155 (Sepantronium Bromide)] 11

Okay, and Cc1c(Cl)cccc1Nc1ccccc1C(=O)O ? 97

Queued: CCn1c(=O)c(-c2cc[nH]n2)cc2c(C)nc(N)nc21 7254

Field entry: CS(=O)(=O)c1ccc(C(=O)Nc2ccc(Cl)c(-c3ccccn3)c2)c(Cl)c1 94

And Cn1nnc2c(C(N)=O)ncn2c1=O [Temozolomide] ? 87

One more compound: CCN(CC)CCNC(=O)c1c(C)[nH]c(/C=C2\C(=O)Nc3ccc(F)cc32)c1C [Sunitinib] 67

And for COc1cccc(-c2ccc(NC(=O)C3=C(C(=O)O)CCC3)c(F)c2)c1 ? 97

Field entry: O=c1[nH]c(=O)n([C@H]2C[C@H](O)[C@@H](CO)O2)cc1C(F)(F)F 89

Subsequent entry: COc1cc2nccc(Oc3ccc(NC(=O)Nc4cc(C)on4)c(Cl)c3)c2cc1OC 107

Next compound: CCCc1nn(C)c2c(=O)[nH]c(-c3cc(S(=O)(=O)N4CCN(C)CC4)ccc3OCC)nc12 [Sildenafil] 75

Try the compound CC(CN(C)C)CN1c2ccccc2CCc2ccccc21 (stereo not drawn) [Trimipramine Maleate] 94

Entry to check: Cc1cccc(N(C)C(=S)Oc2ccc3ccccc3c2)c1 [Tolnaftate] 98

Next compound up: CN(C/C=C/C#CC(C)(C)C)Cc1cccc2ccccc12 [Terbinafine HCl] 100

Then this compound: O=C(NS(=O)(=O)c1ccc(Br)s1)c1ccc(Cl)cc1Cl 94

Would you mind doing NS(=O)(=O)c1cc2c(cc1Cl)NC(C(Cl)Cl)NS2(=O)=O (stereo not drawn) [Trichlormethiazide] as well? 100

Next: Cc1ccc(C(=O)c2ccc(CC(=O)O)n2C)cc1 [Tolmetin Sodium] 95

Same question for COc1cc(C(=O)NS(=O)(=O)c2ccccc2C)ccc1Cc1cn(C)c2ccc(NC(=O)OC3CCCC3)cc12 please. 68

// next record OCC(CO)N[C@H]1C[C@](O)(CO)[C@@H](O)[C@H](O)[C@H]1O 98

How about this compound: CC(C)NCC(O)c1ccc(NS(C)(=O)=O)cc1 (stereo not drawn) 98
